- Test system: SK-MEL-28
- TEST_DESCRIPTION: cells
- CONDITIONS: Homo sapiens, SK-MEL-28, read-out: LC50 SK-MEL-28
MEASURED_ENDPOINT: log10 of CC50 (log10 of the value in µM)
A difference of one corresponds to tenfold CC50; all values are log10 with CC50 in µM.

Answered examples (4):
Ask: Entry CCOC1=C(C)C(=O)C2=C(C1=O)C(CNC(=O)C(C)N)N1CC3Cc4cc(C)c(OCC)c(O)c4C(C1C2)N3C (stereo not shown) : reported log10 of CC50 = ?
Reply: 0.76

Ask: Need log10 of CC50 of COc1c(C)cc2c(c1O)C1C3Cc4cc(C)c(OC)c(O)c4C(CNC(=O)C(C)N)N3C(O)C(C2)N1C (stereo not shown) [Safracin P-22B] , thanks.
Reply: 0.30

Ask: Please look up its log10 of CC50: CCOC1=C(C)C(=O)C2=C(C1=O)C(CNC(=O)C(C)N)N1C(O)C3Cc4cc(C)c(OCC)c(O)c4C(C1C2)N3C (stereo not shown)
Reply: 0.05

Ask: Need log10 of CC50, item COC1=C(C)C(=O)C2=C(C1=O)C(CNC(=O)C(C)N)N1CC3Cc4cc(C)c(OC)c(O)c4C(N3)C1C2 (stereo not shown)
Reply: 1.09

# input for lookup
Ask: Fill blank: measured log10 of CC50 of the compound COC1=C(C)C(=O)C2=C(C1=O)C(CNC(=O)C(C)N)N1C(O)C3Cc4cc(C)c(OC)c(O)c4C(N3)C1C2 (stereo not shown) is ____.
Reply: 1.04
